- Test system: Pseudomonas aeruginosa
- assay.explanation: Antibacterial activity against Pseudomonas aeruginosa ATCC 27853 after 18 hrs by CLSI broth microdilution method
- Assay type: functional
- study.conditions: ATCC 27853, 18 h
Kindly supply the reported MIC values for the records listed here.

molecule	MIC
CN(C)C(=N)c1ccc2cc(-c3ccc4ccc(-c5cc6ccc(C(=N)N(C)C)cc6[nH]5)cc4c3)[nH]c2c1	> 128 µg/mL

Please state, for each entry, its recorded MIC.
1. CC(C)NC(=N)c1ccc2cc(-c3cncc(-c4cc5ccc(C(=N)NC(C)C)cc5[nH]4)c3)[nH]c2c1
2. N=C(c1ccc2cc(-c3ccc(-c4cc5ccc(C(=N)N6CC=CC6)cc5[nH]4)cc3)[nH]c2c1)N1CC=CC1
3. N=C(c1ccc2cc(-c3ccc(-c4cc5ccc(C(=N)N6CCOCC6)cc5[nH]4)cc3)[nH]c2c1)N1CCOCC1

["> 64 µg/mL", "> 128 µg/mL", "> 128 µg/mL"]

Look up MIC: CNC(=N)c1ccc2cc(-c3cncc(-c4cc5ccc(C(=N)NC)cc5[nH]4)c3)[nH]c2c1 > 64 µg/mL
